Overview of recorded pEC50 for various compounds
tested-target: S1P3 (membranes prepared from EDG3-Gal5-bla HEK293T cells) (Homo sapiens (Human))
Sequence (Q99500 whole entry): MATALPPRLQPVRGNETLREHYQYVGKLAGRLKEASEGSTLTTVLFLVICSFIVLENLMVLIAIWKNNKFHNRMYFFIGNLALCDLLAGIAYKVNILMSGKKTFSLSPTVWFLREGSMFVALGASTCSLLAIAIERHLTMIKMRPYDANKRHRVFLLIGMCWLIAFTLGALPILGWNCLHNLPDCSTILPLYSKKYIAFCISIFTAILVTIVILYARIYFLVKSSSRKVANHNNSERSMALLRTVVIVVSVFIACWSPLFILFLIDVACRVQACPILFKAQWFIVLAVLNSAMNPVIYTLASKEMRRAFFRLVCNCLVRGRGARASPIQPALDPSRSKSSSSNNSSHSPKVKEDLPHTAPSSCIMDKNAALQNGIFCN
protocol-notes: Receptor [35S] GTPγS binding assay (S1P3 GTPγS)
Assay type: biochemical
measurement-conditions: [35S]GTPγS, EDG3-Gal5-bla HEK293T cell membranes; read-out: GTPγS S1P3 EC50
pEC50: −log10 of the molar value.

Please look up its pEC50: COCCCCCC1CCc2cc([C@H]3CC[C@](N)(COP(=O)(O)O)C3)ccc2C1 (single isomer, unassigned) [Example 690]
< 6.20

----------
Measured pEC50, listed per entry.
tested-target: S1P1 (membranes prepared from S1P1/CHO cells) (Homo sapiens (Human))
Sequence (P21453 whole entry): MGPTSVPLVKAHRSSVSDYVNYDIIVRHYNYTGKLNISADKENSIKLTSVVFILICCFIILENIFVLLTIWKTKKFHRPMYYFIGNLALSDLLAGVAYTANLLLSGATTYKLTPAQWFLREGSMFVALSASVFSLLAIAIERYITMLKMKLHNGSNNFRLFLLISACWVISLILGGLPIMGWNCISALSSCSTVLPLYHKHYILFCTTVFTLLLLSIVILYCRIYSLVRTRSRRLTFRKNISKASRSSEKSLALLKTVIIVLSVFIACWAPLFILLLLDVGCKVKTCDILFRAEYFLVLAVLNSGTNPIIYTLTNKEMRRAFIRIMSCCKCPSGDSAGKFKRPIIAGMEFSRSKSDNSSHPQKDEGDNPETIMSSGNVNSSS
protocol-notes: Receptor [35S] GTPγS binding assay (S1P1 GTPγS)
Type: biochemical
measurement-conditions: phosphate examples; read-out: S1P1 GTPγS
pEC50: −log10 of the molar value.

N[C@@]1(COP(=O)(O)O)CC[C@@H](c2ccc3c(c2)CC[C@H](CCc2ccc4ccccc4n2)C3)C1 (single isomer, unassigned) :: 6.00 to 7.00

Item under review: CCCCC1CCc2cc([C@H]3CC[C@](N)(COP(=O)(O)O)C3)ccc2C1=O (stereo partly drawn) . Reported pEC50?
7.00 to 8.00

Looking for the measured pEC50 of N[C@]1(COP(=O)(O)O)CC[C@H](c2ccc3c(c2)CC[C@@H](CCc2ccccc2)C3)C1 , can you help?
7.00 to 8.00

Consider the compound CCCSCC[C@@H]1CCc2cc([C@H]3CC[C@](N)(COP(=O)(O)O)C3)ccc2C1 and give its measured pEC50.
> 8.00

Entry under review: C/C=C\CCC[C@@H]1CCc2cc([C@H]3CC[C@](N)(COP(=O)(O)O)C3)ccc2C1 . Reported pEC50?
7.00 to 8.00

Name the reported pEC50 value associated with the compound CCCCCSC[C@H]1CCc2cc([C@H]3CC[C@](N)(COP(=O)(O)O)C3)ccc2C1
> 8.00

Given the entry CC(C)c1ccc(OC[C@@H]2CCc3cc([C@H]4CC[C@](N)(COP(=O)(O)O)C4)ccc3C2)cc1 , report its measured pEC50.
7.00 to 8.00

Endpoint output: pEC50 of CC(C)c1cccc(OC[C@@H]2CCc3cc([C@H]4CC[C@](N)(COP(=O)(O)O)C4)ccc3C2)c1 . Value?
7.00 to 8.00

Look up pEC50 for this compound: N[C@]1(COP(=O)(O)O)CC[C@H](c2ccc3c(c2)CC[C@@H](CSc2cccnc2)C3)C1
7.00 to 8.00

Which pEC50 value is on record for COCCCC[C@H]1CCc2cc([C@@H]3CC[C@@](N)(COP(=O)(O)O)C3)ccc2C1 ?
7.00 to 8.00

For the compound Cc1ccccc1SC[C@@H]1CCc2cc([C@H]3CC[C@](N)(COP(=O)(O)O)C3)ccc2C1 , what pEC50 is on record?
7.00 to 8.00

State the recorded pEC50 for this entry: N[C@]1(COP(=O)(O)O)CC[C@H](c2ccc3c(c2)CC[C@@H](COCc2cccs2)C3)C1
6.00 to 7.00

pEC50 lookup needed for CCCCCC(=O)NC1CCc2cc([C@H]3CC[C@@](N)(COP(=O)(O)O)C3)ccc2C1 (stereo partly drawn) , thanks.
6.00 to 7.00

Fill in: pEC50 of COc1ccc(F)c(OC[C@@H]2CCc3cc([C@H]4CC[C@](N)(COP(=O)(O)O)C4)ccc3C2)c1 [compound 484] is ___
7.00 to 8.00

Name the recorded pEC50 for CCCCCCC1CCc2nc([C@@H]3CC[C@@](N)(COP(=O)(O)O)C3)ccc2C1 (stereo partly drawn) .
7.00 to 8.00

Attribution: patent US9522888B2
